experiment: Intravenous pharmacokinetics in mice (plasma, brain, spinal cord; LC-MS/MS, non-compartmental analysis); conditions: male, C57BL/6 J, mouse, brain, iv, 1 mg/kg, t1/2, brain; single i.v. 1 mg/kg, mice
Bridge positions count the residues as written; N and C are the ends. Square brackets hold non-standard residues; d marks the D form. Peptide text beside a SMILES is read from it. * marks the point of attachment. Hydrocinnamoyl = O=C(CCc1ccccc1)*; dCha = N[C@H](CC1CCCCC1)C(=O)O; Orn = NCCC[C@H](N)C(=O)O
Readout kind: half-life (min)
Report as a plain number; the unit min is understood.

For N=C(N)NCCC[C@@H]1NC(=O)[C@H](Cc2c[nH]c3ccccc23)NC(=O)[C@@H](CC2CCCCC2)NC(=O)[C@@H]2CCCN2C(=O)[C@@H](NC(=O)CCc2ccccc2)CCCNC1=O [PMX205, hydrocinnamate-[Orn-Pro-dCha-Trp-Arg]] (Hydrocinnamoyl-[Orn]P[dCha]WR; lactam 1-C) the compound record lists half-life as 161

====

test: in vivo; details: male, C57BL/6 J, mouse, iv, 1 mg/kg
Readout kind: clearance (mL/min)
Write the answer as a number in mL/min, unit excluded.

Lookup result for CC(=O)N[C@@H](Cc1ccccc1)C(=O)N[C@H]1CCCNC(=O)[C@H](CCCNC(=N)N)NC(=O)[C@H](Cc2c[nH]c3ccccc23)NC(=O)[C@@H](CC2CCCCC2)NC(=O)[C@@H]2CCCN2C1=O [PMX53, Ac-Phe-[Orn-Pro-dCha-Trp-Arg]] ; measured clearance: 0.18

====

test: in vivo; conditions: male, C57BL/6 J, mouse, iv, 1 mg/kg
Readout kind: AUC(0-inf) (ng·h/mL)
Provide only the numeric value, understood in ng·h/mL.

Form field AUC(0-inf), entry CC(=O)N[C@@H](Cc1ccccc1)C(=O)N[C@H]1CCCNC(=O)[C@H](CCCNC(=N)N)NC(=O)[C@H](Cc2c[nH]c3ccccc23)NC(=O)[C@@H](CC2CCCCC2)NC(=O)[C@@H]2CCCN2C1=O [PMX53, Ac-Phe-[Orn-Pro-dCha-Trp-Arg]] : 3830

====

assay: Intravenous pharmacokinetics in mice (plasma, brain, spinal cord; LC-MS/MS, non-compartmental analysis); conditions: male, C57BL/6 J, mouse, plasma, iv, 1 mg/kg, Cmax; single i.v. 1 mg/kg, mice
Bridge positions count the residues as written; N and C are the ends. Square brackets hold non-standard residues; d marks the D form. Peptide text beside a SMILES is read from it. * marks the point of attachment. Hydrocinnamoyl = O=C(CCc1ccccc1)*; dCha = N[C@H](CC1CCCCC1)C(=O)O; Orn = NCCC[C@H](N)C(=O)O
Readout kind: Cmax (ng/mL)
A number alone suffices; assume ng/mL.

Lab book: Cmax of N=C(N)NCCC[C@@H]1NC(=O)[C@H](Cc2c[nH]c3ccccc23)NC(=O)[C@@H](CC2CCCCC2)NC(=O)[C@@H]2CCCN2C(=O)[C@@H](NC(=O)CCc2ccccc2)CCCNC1=O [PMX205, hydrocinnamate-[Orn-Pro-dCha-Trp-Arg]] (Hydrocinnamoyl-[Orn]P[dCha]WR; lactam 1-C) noted as 29000

====

assay: in vivo; conditions: male, C57BL/6 J, mouse, iv, 1 mg/kg, Cmax
Readout kind: Cmax (ng/mL)
I only need the number, in ng/mL, no unit after it.

Looking up CC(=O)N[C@@H](Cc1ccccc1)C(=O)N[C@H]1CCCNC(=O)[C@H](CCCNC(=N)N)NC(=O)[C@H](Cc2c[nH]c3ccccc23)NC(=O)[C@@H](CC2CCCCC2)NC(=O)[C@@H]2CCCN2C1=O [PMX53, Ac-Phe-[Orn-Pro-dCha-Trp-Arg]] , I found its Cmax recorded as 11900

====

assay: Intravenous pharmacokinetics in mice (plasma, brain, spinal cord; LC-MS/MS, non-compartmental analysis); settings: male, C57BL/6 J, mouse, brain, iv, 1 mg/kg, Cmax; single i.v. 1 mg/kg, mice
Bridge positions count the residues as written; N and C are the ends. Square brackets hold non-standard residues; d marks the D form. Peptide text beside a SMILES is read from it. * marks the point of attachment. Hydrocinnamoyl = O=C(CCc1ccccc1)*; dCha = N[C@H](CC1CCCCC1)C(=O)O; Orn = NCCC[C@H](N)C(=O)O
Readout kind: Cmax (ng/g)
Response body: numeric value in ng/g, unit text excluded.

Record N=C(N)NCCC[C@@H]1NC(=O)[C@H](Cc2c[nH]c3ccccc23)NC(=O)[C@@H](CC2CCCCC2)NC(=O)[C@@H]2CCCN2C(=O)[C@@H](NC(=O)CCc2ccccc2)CCCNC1=O [PMX205, hydrocinnamate-[Orn-Pro-dCha-Trp-Arg]] (Hydrocinnamoyl-[Orn]P[dCha]WR; lactam 1-C) . Reported Cmax: 108

====

assay: Intravenous pharmacokinetics in mice (plasma, brain, spinal cord; LC-MS/MS, non-compartmental analysis); conditions: male, C57BL/6 J, mouse, plasma, iv, 1 mg/kg, Vss_obs, plasma; single i.v. 1 mg/kg, mice
Bridge positions count the residues as written; N and C are the ends. Square brackets hold non-standard residues; d marks the D form. Peptide text beside a SMILES is read from it. * marks the point of attachment. Hydrocinnamoyl = O=C(CCc1ccccc1)*; dCha = N[C@H](CC1CCCCC1)C(=O)O; Orn = NCCC[C@H](N)C(=O)O
Readout kind: Vd (L)
Only the number, expressed in L, is required.

Entry N=C(N)NCCC[C@@H]1NC(=O)[C@H](Cc2c[nH]c3ccccc23)NC(=O)[C@@H](CC2CCCCC2)NC(=O)[C@@H]2CCCN2C(=O)[C@@H](NC(=O)CCc2ccccc2)CCCNC1=O [PMX205, hydrocinnamate-[Orn-Pro-dCha-Trp-Arg]] (Hydrocinnamoyl-[Orn]P[dCha]WR; lactam 1-C) — recorded Vd = 0.00079

====

experiment: Intravenous pharmacokinetics in mice (plasma, brain, spinal cord; LC-MS/MS, non-compartmental analysis); conditions: male, C57BL/6 J, mouse, plasma, iv, 1 mg/kg, Vz_obs; single i.v. 1 mg/kg, mice
Bridge positions count the residues as written; N and C are the ends. Square brackets hold non-standard residues; d marks the D form. Peptide text beside a SMILES is read from it. * marks the point of attachment. Hydrocinnamoyl = O=C(CCc1ccccc1)*; dCha = N[C@H](CC1CCCCC1)C(=O)O; Orn = NCCC[C@H](N)C(=O)O
Readout kind: Vd (L)
Write the number in L without appending the unit.

Value of Vd reported for the compound N=C(N)NCCC[C@@H]1NC(=O)[C@H](Cc2c[nH]c3ccccc23)NC(=O)[C@@H](CC2CCCCC2)NC(=O)[C@@H]2CCCN2C(=O)[C@@H](NC(=O)CCc2ccccc2)CCCNC1=O [PMX205, hydrocinnamate-[Orn-Pro-dCha-Trp-Arg]] (Hydrocinnamoyl-[Orn]P[dCha]WR; lactam 1-C) is 0.00132

====

test: Intravenous pharmacokinetics in mice (plasma, brain, spinal cord; LC-MS/MS, non-compartmental analysis); conditions: male, C57BL/6 J, mouse, spinal cord, iv, 1 mg/kg, MRT 0-inf_obs; single i.v. 1 mg/kg, mice
Bridge positions count the residues as written; N and C are the ends. Square brackets hold non-standard residues; d marks the D form. Peptide text beside a SMILES is read from it. * marks the point of attachment. Hydrocinnamoyl = O=C(CCc1ccccc1)*; dCha = N[C@H](CC1CCCCC1)C(=O)O; Orn = NCCC[C@H](N)C(=O)O
Readout kind: MRT inf (h)
Numeric answer only, unit h assumed.

Recorded result, N=C(N)NCCC[C@@H]1NC(=O)[C@H](Cc2c[nH]c3ccccc23)NC(=O)[C@@H](CC2CCCCC2)NC(=O)[C@@H]2CCCN2C(=O)[C@@H](NC(=O)CCc2ccccc2)CCCNC1=O [PMX205, hydrocinnamate-[Orn-Pro-dCha-Trp-Arg]] (Hydrocinnamoyl-[Orn]P[dCha]WR; lactam 1-C) , MRT inf: 2.49

====

test: Intravenous pharmacokinetics in mice (plasma, brain, spinal cord; LC-MS/MS, non-compartmental analysis); conditions: male, C57BL/6 J, mouse, plasma, iv, 1 mg/kg
Bridge positions count the residues as written; N and C are the ends. Square brackets hold non-standard residues; d marks the D form. Peptide text beside a SMILES is read from it. * marks the point of attachment. Hydrocinnamoyl = O=C(CCc1ccccc1)*; dCha = N[C@H](CC1CCCCC1)C(=O)O; Orn = NCCC[C@H](N)C(=O)O
Readout kind: clearance (mL/min)
Report the figure in mL/min without appending any unit label.

# clearance (molecule: N=C(N)NCCC[C@@H]1NC(=O)[C@H](Cc2c[nH]c3ccccc23)NC(=O)[C@@H](CC2CCCCC2)NC(=O)[C@@H]2CCCN2C(=O)[C@@H](NC(=O)CCc2ccccc2)CCCNC1=O [PMX205, hydrocinnamate-[Orn-Pro-dCha-Trp-Arg]] (Hydrocinnamoyl-[Orn]P[dCha]WR; lactam 1-C) ) is 0.086
